Hey, just so you know, these numbers are from patent US20250163162A1.

- EXPERIMENTAL_SYSTEM: T1, IL10Rα/IL2Rγ receptor (human, UniProt Q13651 22-578; P31785 23-369)
- T1 sequence (looked up) 1: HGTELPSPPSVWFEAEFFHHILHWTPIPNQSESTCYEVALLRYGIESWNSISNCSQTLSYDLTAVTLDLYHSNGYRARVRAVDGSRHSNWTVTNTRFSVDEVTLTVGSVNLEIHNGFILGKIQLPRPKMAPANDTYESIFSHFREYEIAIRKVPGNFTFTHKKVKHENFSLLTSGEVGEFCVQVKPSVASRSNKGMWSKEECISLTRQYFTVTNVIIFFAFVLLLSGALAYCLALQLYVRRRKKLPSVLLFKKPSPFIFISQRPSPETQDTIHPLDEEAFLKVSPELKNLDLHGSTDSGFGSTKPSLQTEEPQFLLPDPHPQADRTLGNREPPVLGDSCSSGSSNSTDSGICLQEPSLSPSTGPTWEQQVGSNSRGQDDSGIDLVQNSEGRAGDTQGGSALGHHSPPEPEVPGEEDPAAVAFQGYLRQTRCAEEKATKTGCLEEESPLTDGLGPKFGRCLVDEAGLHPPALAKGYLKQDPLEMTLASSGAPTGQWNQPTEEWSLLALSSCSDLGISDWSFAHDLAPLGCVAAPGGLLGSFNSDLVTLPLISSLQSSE
- T1 sequence (looked up) 2: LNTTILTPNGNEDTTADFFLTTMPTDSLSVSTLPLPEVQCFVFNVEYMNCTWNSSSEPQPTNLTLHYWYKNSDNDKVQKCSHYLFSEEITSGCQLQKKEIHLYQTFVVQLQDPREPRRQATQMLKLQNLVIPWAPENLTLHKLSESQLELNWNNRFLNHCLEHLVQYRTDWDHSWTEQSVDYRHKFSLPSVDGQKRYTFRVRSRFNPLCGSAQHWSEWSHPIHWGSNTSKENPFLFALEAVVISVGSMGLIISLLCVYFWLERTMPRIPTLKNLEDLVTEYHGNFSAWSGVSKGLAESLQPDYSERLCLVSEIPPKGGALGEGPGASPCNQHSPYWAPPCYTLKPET
- ASSAY: cell-based or functional assay
# Lookup of reported pSTAT3 MFI, B cells, 0.01 nM (unstimulated 1193.5) keyed by entry
Please respond with the number in MFI and leave the unit unwritten.

Reference set, count: 2
# BINDER, RECORDED_MEASUREMENT
rows = [
    ("DR465(DR240-DR231) (bispecific antibody) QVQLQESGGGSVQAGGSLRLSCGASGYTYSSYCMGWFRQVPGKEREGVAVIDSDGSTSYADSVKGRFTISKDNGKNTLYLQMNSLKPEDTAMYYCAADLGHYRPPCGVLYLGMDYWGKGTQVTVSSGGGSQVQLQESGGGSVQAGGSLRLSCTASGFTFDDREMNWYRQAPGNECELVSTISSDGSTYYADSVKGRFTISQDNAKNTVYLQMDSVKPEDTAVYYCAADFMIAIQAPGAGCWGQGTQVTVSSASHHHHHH", 1090),
    ("DR441(DR236-DR231) (bispecific antibody) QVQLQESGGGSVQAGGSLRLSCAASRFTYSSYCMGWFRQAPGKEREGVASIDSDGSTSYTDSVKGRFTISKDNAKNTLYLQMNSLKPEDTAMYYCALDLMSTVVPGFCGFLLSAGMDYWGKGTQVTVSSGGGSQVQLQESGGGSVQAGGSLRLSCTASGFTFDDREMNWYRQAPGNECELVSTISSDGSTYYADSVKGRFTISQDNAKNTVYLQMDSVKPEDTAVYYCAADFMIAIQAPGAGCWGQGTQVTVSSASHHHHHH", 1130),
]

# input Quickly give me recorded pSTAT3 MFI, B cells, 0.01 nM (unstimulated 1193.5) for DR395(DR229-DR239) (bispecific antibody) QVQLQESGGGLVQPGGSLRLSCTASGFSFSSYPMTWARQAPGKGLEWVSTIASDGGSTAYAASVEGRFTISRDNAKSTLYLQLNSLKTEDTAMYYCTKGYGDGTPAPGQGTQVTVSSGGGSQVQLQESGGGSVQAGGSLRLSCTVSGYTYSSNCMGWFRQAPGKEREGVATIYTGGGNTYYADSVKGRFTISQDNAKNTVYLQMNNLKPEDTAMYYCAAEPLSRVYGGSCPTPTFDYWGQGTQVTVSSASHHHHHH
# output 1140
